Reference source for all entries: ChEMBL document CHEMBL6103538

- target_desc: Carbonic anhydrase 2 (Homo sapiens, UniProt P00918)
- experiment_notes: Binding affinity to human CA II assessed as inhibition constant
measurement_kind: pKi
Numbers only, as −log10 of the molar value.

Below, each entry is followed by its recorded pKi result.
> print(dat)
                               input.smiles  test.value
1  CCOC(=O)c1sc2ncnc(Nc3ccc(S(N)(=O)=O)cc3)c2c1C        8.07
2  CCOC(=O)c1sc(NC(=O)c2ccc(S(N)(=O)=O)cc2)nc1C(F)(F)F        8.13

Jot down pKi (Carbonic anhydrase 2 (Homo sapiens, UniProt P00918)) of Cn1c(N)c(NCc2cc(I)ccc2O)c(=O)n(C)c1=O .
7.79
